Each entry below lists one item and its recorded CL/F value.
- PROCEDURE SUMMARY: Pharmacokinetics assay in rats after intragastrical administration
- Type: in vivo, Sprague-Dawley (SD) rats
- TEST CONTEXT: both sexes, Sprague-Dawley, rat, plasma, po; SD rats, intragastric, 2 mg/kg; read-out: Clearance CLz/F
Write it as a number; the unit mL/min/kg goes unstated.

Consider the following illustrative entries.
[[record]]
smiles_string = "CCC(=O)c1ccc(Cl)cc1-c1cc(=O)n([C@@H](CCOC(C)(C)C)C(=O)Nc2ccc(C(=O)O)cc2)cc1OC"
readout_value = 74.3

[[record]]
smiles_string = "COc1cn([C@H](CC2CCC2)C(=O)Nc2ccc(C(=O)O)cc2)c(=O)cc1-c1c(C(C)=O)ccc(Cl)c1F"
readout_value = 92.5

[[record]]
smiles_string = "COc1cn([C@@H](Cc2ccccn2)C(=O)Nc2ccc(C(=O)O)cc2)c(=O)cc1-c1cc(Cl)ccc1C(C)=O"
readout_value = 222

[[record]]
smiles_string = "COc1cn([C@@H](CCOC(C)(C)C)C(=O)Nc2ccc(C(=O)O)cc2)c(=O)cc1-c1cc(Cl)ccc1C(C)=O"
readout_value = 94.1

[[record]]
smiles_string = "CCC(=O)c1ccc(Cl)cc1-c1cc(=O)n([C@@H](CCOC(C)(C)C)C(=O)Nc2ccc3nccnc3c2)cc1OC"
readout_value = 278


Now consider the entry below.
So, COc1cn([C@@H](Cc2ccccc2)C(=O)Nc2ccc(C(N)=O)cc2)c(=O)cc1-c1cc(Cl)ccc1C(C)=O ? Its CL/F was 299

* * *

- PROCEDURE SUMMARY: Pharmacokinetics assay in cynomolgus monkeys
- Assay type: in vivo
- TEST CONTEXT: male, cynomolgus monkey, plasma, po, intragastric, 15 mg/kg, read-out: Apparent Distribution Volume Vz/F
Each entry below lists one item and its recorded Vd/F value.
Write it as a number; the unit L/kg goes unstated.

[[record]]
smiles_string = "CCC(=O)c1ccc(Cl)cc1-c1cc(=O)n([C@@H](CCOC(C)(C)C)C(=O)Nc2ccc(C(=O)O)cc2)cc1OC"
readout_value = 59.1


So, COc1cn([C@@H](Cc2ccccc2)C(=O)Nc2ccc(C(=O)O)cc2)c(=O)cc1-c1cc(Cl)ccc1C(C)=O ? Its Vd/F was 30.4

* * *

- SYSTEM UNDER TEST: Coagulation Factor XIa protease (Homo sapiens (Human), UniProt P03951)
- Sequence (P03951 388-625): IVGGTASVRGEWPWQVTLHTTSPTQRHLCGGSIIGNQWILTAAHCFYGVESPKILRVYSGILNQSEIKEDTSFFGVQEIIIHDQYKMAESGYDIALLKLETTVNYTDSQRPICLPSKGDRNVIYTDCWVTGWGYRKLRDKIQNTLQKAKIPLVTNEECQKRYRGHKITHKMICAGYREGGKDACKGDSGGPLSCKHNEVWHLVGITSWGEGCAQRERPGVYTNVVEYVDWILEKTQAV
- Sequence (P03951 19-387 partner): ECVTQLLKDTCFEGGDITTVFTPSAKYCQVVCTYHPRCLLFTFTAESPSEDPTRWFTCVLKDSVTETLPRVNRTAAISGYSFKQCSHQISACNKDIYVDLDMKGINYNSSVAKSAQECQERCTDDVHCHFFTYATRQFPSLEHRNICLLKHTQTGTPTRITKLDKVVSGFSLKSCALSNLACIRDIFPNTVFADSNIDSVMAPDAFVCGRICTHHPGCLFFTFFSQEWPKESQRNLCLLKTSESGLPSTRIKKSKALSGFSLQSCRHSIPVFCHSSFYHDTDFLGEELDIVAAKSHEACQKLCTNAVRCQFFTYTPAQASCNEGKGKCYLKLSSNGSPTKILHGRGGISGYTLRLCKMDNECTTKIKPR
Rule: IC50 below 100 nM gives true, anything at or above gives false.

Below, 3 compounds whose answers are already recorded.
[[record]]
compound = "COc1cn(C(CC2(C)CC2)C(=O)Nc2ccc(C(=O)O)cc2)c(=O)cc1-c1cc(Cl)ccc1C(C)=O (centres unmarked) [Example 158]"
label = "true"

[[record]]
compound = "CCNC(=O)c1ccc(NC(=O)[C@H](Cc2ccccc2)n2cc(OC)c(-c3cc(Cl)ccc3C(C)=O)cc2=O)cc1 [Example 37]"
label = "true"

[[record]]
compound = "CCC(=O)c1ccc(Cl)cc1-c1cc(=O)n(C(Cc2ccccc2)C(=O)Nc2ccc3cn[nH]c3c2)cc1OC (centres unmarked) [Example 27]"
label = "true"


Let's switch to this compound now.
In plain terms, does COc1cn([C@@H](CC2CCC2)C(=O)Nc2ccc(C(=O)O)cc2)c(=O)cc1-c1c(C(C)=O)ccc(Cl)c1F [Example 161] come in under 100 nM for IC50? false
